- Experimental system: human PDE10A (UniProt Q9Y233)
- Sequence (Q9Y233 290-1055 limits assumed): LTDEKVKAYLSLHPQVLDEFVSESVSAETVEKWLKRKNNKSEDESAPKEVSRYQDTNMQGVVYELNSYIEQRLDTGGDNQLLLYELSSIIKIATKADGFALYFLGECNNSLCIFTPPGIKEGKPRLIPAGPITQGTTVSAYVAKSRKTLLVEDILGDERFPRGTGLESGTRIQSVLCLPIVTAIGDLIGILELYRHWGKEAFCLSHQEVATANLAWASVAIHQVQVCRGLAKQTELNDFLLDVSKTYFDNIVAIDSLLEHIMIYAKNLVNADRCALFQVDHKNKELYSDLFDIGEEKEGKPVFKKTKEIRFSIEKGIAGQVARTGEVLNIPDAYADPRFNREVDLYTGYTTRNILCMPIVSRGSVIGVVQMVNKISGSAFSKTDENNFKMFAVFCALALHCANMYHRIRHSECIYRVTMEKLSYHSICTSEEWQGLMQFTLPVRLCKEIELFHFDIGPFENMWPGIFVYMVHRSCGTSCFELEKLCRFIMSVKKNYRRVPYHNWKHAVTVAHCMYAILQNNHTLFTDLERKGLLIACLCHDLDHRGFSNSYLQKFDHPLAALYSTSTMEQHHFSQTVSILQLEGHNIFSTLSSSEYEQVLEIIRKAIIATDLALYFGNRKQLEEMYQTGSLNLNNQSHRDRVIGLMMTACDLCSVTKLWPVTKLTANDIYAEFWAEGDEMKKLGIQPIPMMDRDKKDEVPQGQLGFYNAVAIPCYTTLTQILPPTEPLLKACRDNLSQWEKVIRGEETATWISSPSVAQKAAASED
- Measurement description: Measurement of PDE activity (recombinant enzyme, HTRF cAMP kit)
- Type: biochemical
- Test context: Table 1, substrate 20 nM for PDE10, 60 minutes at 29 C, read-out: IC50
Value type: IC50

Ask: Specify IC50 for COc1cccc(-c2csc3cnn(CCc4ccc5ccccc5n4)c(=O)c23)c1 and stop.
Reply: 200 to 500 nM

Ask: Specify IC50 for Cc1ncc(-c2cccc3cnn(CCc4cn5ccccc5n4)c(=O)c23)cn1 and stop.
Reply: 100 to 200 nM

Ask: Specify IC50 for O=c1c2c(-c3ccncc3)csc2cnn1CCc1ccc2ncccc2n1 and stop.
Reply: < 100 nM

Ask: Specify IC50 for O=c1c2c(N3CCOCC3)cccc2ccn1C1CC1c1ccc2ccccc2n1 (centres unmarked) [Example 246] and stop.
Reply: < 100 nM

----------
Quick list: IC50 per entry.
- Experimental system: UniProtKB Q9Y233
- Measurement description: Measurement of PDE activity (recombinant enzyme, HTRF cAMP kit)
- Format: biochemical
- Test context: Table 1, substrate 20 nM for PDE10, 60 minutes at 29 C, read-out: IC50
Structures can show the parent of a compound that is named as a salt.

Please review the entries below; each comes with its answer.
>  <Molecule>
COc1ncc(-c2csc3cnn(CCc4ccc5ccccc5n4)c(=O)c23)cn1

>  <Value type>
IC50

>  <Assay result>
< 100 nM

$$$$
>  <Molecule>
O=c1c2c(-c3ccncc3)cncc2cnn1CCc1ccc2ccccc2n1

>  <Value type>
IC50

>  <Assay result>
< 100 nM

$$$$
>  <Molecule>
O=c1c2c(-c3ccc4[nH]ccc4c3)cccc2cnn1CCc1ccc2ccccc2n1

>  <Value type>
IC50

>  <Assay result>
200 to 500 nM

$$$$
>  <Molecule>
O=c1c2c(-c3ccc4c(c3)OCO4)cccc2cnn1CCc1ccc2ccccc2n1

>  <Value type>
IC50

>  <Assay result>
200 to 500 nM

$$$$

Ask: Specify IC50 for O=c1c2c(-c3ccncc3)cccc2cnn1CCc1ccc2ccccc2n1 and stop.
Reply: < 100 nM

Ask: Specify IC50 for O=c1c2c(-c3cccnc3)cccc2ccn1C1CC1c1ccc2ccccc2n1 (stereo not drawn) [Example 239, hydrochloride] and stop.
Reply: < 100 nM

Ask: Specify IC50 for O=c1c2c(-c3cncnc3)cccc2ccn1[C@@H]1C[C@H]1c1ccc2ccccc2n1 (racemic) and stop.
Reply: < 100 nM

Ask: Specify IC50 for O=c1c2c(-c3ccncc3)cccc2ccn1C1CC1c1ccc2cc(F)ccc2n1 (stereo not drawn) and stop.
Reply: < 100 nM

Ask: Specify IC50 for COc1ncc(-c2cccc3cnn(CCc4cn5ccccc5n4)c(=O)c23)cn1 and stop.
Reply: 100 to 200 nM

Ask: Specify IC50 for CN(C)C(=O)c1cccc(-c2cccc3cnn(CCc4ccc5ccccc5n4)c(=O)c23)c1 and stop.
Reply: 100 to 200 nM

Ask: Specify IC50 for O=c1c2c(-c3ccncc3)csc2ccn1/C=C/c1ccc2cc(Cl)ccc2n1 and stop.
Reply: < 100 nM

Ask: Specify IC50 for Cc1csc2c(-c3ccncc3)cn(CCc3ccc4ccccc4n3)c(=O)c12 and stop.
Reply: < 100 nM

Ask: Specify IC50 for O=c1c2c(-c3cccc(O)c3)csc2ccn1CCc1ccc2ccccc2n1 [Example 208, hydrochloride] and stop.
Reply: < 100 nM

The reported numbers originate from patent US20130116241A1.
